Assay: Equilibrium solubility in water and bio-relevant media (SGF, FaSSIF, FeSSIF)
Conditions: final solution in SGF
Parameter threshold = 3. Response is true (1) when pH meets or exceeds it, else false (0).

Ask | Textbook exercise: given the entry CC(C)[C@@H]1[C@H]2CC[C@H](C2)[C@H]1N.O=C(O)CCC(=O)O [Succinate Type A] , state whether its pH is greater than or equal to 3.
Reply | true (1)

Ask | Textbook exercise: given the entry CC(C)C1C2CCC(C2)C1N.Cl (racemic) [HCl salt Type A, reference compound] , state whether its pH is greater than or equal to 3.
Reply | false (0)

Ask | Textbook exercise: given the entry CC(C)[C@@H]1[C@H]2CC[C@H](C2)[C@H]1N [L-malate Type C] , state whether its pH is greater than or equal to 3.
Reply | true (1)

Ask | Textbook exercise: given the entry CC(C)[C@@H]1[C@H]2CC[C@H](C2)[C@H]1N.O=C(O)/C=C\C(=O)O [Maleate Type A] , state whether its pH is greater than or equal to 3.
Reply | true (1)

Ask | Textbook exercise: given the entry CC(C)[C@@H]1[C@H]2CC[C@H](C2)[C@H]1N.O=C(O)/C=C/C(=O)O [Fumarate Type A] , state whether its pH is greater than or equal to 3.
Reply | true (1)

Source listed as patent US20240116850A1.
